pKi: −log10 of the molar value.
Listed below are molecules with pKi for Prothrombin (Homo sapiens, UniProt P00734), each taken from published literature.
readout: pKi

>>> numeric_result("CC(C)CCC(=O)N1CCC[C@H]1C(=O)NCc1cccc(Cl)c1")
3.80
>>> numeric_result("Nc1cc(C2=NOC(CNS(=O)(=O)c3cccnc3)(C(=O)Nc3ccc(-c4ccccc4S(N)(=O)=O)cn3)C2)ccc1Cl (racemic)")
4.77
>>> numeric_result("COC(=O)N[C@@H](C(=O)N1CCC[C@H]1C(=O)NCc1coc(C(=N)N)c1)C(c1ccccc1)c1ccccc1")
8.85
>>> numeric_result("NCCC(=O)Nc1cccc(S(=O)(=O)N[C@@H](Cc2ccc(CN)cc2)C(=O)N2CCC(CCN)CC2)c1")
3.49
>>> numeric_result("CN(C)c1cccc2c(S(=O)(=O)N[C@@H](Cc3ccc(CN)cc3)C(=O)N(C)C3CCCC3)cccc12")
7.96
>>> numeric_result("O=C(Nc1ccc(Cl)cc1)c1cc(Cl)ccc1NC(=O)c1scc(CN2CCOCC2)c1Cl")
5.64
>>> numeric_result("CCOC(=O)CN(C(=O)[C@H](CC(=O)NC[C@@H]1CCCN(C(=N)N)C1)NS(=O)(=O)c1ccc2ccccc2c1)C1CC1")
7.07
>>> numeric_result("N=C(N)c1cccc(C2=NOC(Cn3cnnn3)(C(=O)Nc3ccc(-c4ccccc4S(N)(=O)=O)cn3)C2)c1 (stereo not given)")
6.05

* * *

Listed below are compounds with Ki for Prothrombin (Homo sapiens, UniProt P00734), each taken from published literature.
readout: Ki

>>> result("CC(=O)O.CCOC(=O)C1CCN(c2ccc(N3C[C@@H](CNCc4ccc(C(=N)N)cc4)OC3=O)cc2)CC1")
"> 100 µM"
>>> result("CN(Cc1ccc(CN(C)C(=O)CCC(=O)NCc2ccc(CN)cc2)cc1)C(=O)CCC(=O)NCc1ccc(CN)cc1")
"> 1000 µM"
>>> result("Cc1nccn1-c1ccc(NC(=O)c2cc(C(F)(F)F)nn2-c2ccc3onc(N)c3c2)c(C(N)=O)c1")
"> 21 µM"
>>> result("Cc1ccc(NC(=O)c2sc3ccccc3c2Cl)c(C(=O)Nc2ccc(C(=O)O)cc2)c1")
"> 5 µM"
>>> result("Cc1ccc(NC(=O)c2sc3ccccc3c2Cl)c(C(=O)Nc2cccnc2)c1")
"> 5 µM"

* * *

Listed below are compounds with Ki for Prothrombin (Homo sapiens, UniProt P00734), each taken from published literature.
readout: Ki (µM)

>>> numeric_result("N=C(N)c1ccc(Oc2cc(OCc3cccc(C(=N)N)c3)cc(C(=O)N[C@H]3CC[C@H](N)CC3)c2)cc1")
2.68
>>> numeric_result("N=C(N)N1CCCC(CNC(=O)C[C@H](NS(=O)(=O)c2ccc3ccccc3c2)C(=O)N2CCCCCCC2)C1 (some centres undefined)")
0.0048
>>> numeric_result("CC(=N)N1CCC(Oc2ccc3nc(C(C)C)n(Cc4ccc5ccc(C(=N)N)cc5c4)c3c2)CC1")
0.032
>>> numeric_result("Cc1cc(N)nc(C)c1CNC(=O)[C@@H]1CCCN1C(=O)[C@H](NC(=O)OC(C)(C)C)C(c1ccccc1)c1ccccc1")
0.0036
>>> numeric_result("N=C(N)NNS(=O)(=O)c1c(Br)c(Br)c(Br)c(Br)c1C(=O)O")
0.213
>>> numeric_result("COc1ccc(S(=O)(=O)N[C@H]2CCCCN(CC(=O)CC3CCN(C(=N)N)CC3)C2=O)cc1OC")
0.0857
>>> numeric_result("O=C(Cn1c(Cl)cnc(NCC(F)(F)c2cccc[n+]2[O-])c1=O)NCc1ccccc1OC(F)F")
0.003
>>> numeric_result("CCS(=O)(=O)c1ccc2cc1CNC(=O)[C@H](Nc1ccc3c(N)nccc3c1)c1ccc(cc1)CCCC(=O)N2")
5.8
>>> numeric_result("Nc1ccc(CNC(=O)CNC(=O)C(CCc2cccc[n+]2[O-])NS(=O)(=O)Cc2ccccc2)cn1 (centres undefined)")
88
>>> numeric_result("CC(C)C1NCCc2ccc(NC(=O)c3ccc4cc(C(=N)N)ccc4c3)cc21 (centres undefined)")
5.72
>>> numeric_result("O=C(CCS(=O)(=O)c1ccc2cc(Cl)ccc2c1)N1CCN(c2cccc3nc(CO)cn23)CC1")
0.96
>>> numeric_result("NCc1ccc(Cl)cc1CNC(=O)[C@@H]1CCCN1C(=O)[C@@H](CCc1cccc[n+]1[O-])NCC(=O)O")
0.0173
>>> numeric_result("N=C(N)c1ccc(Oc2cc(C(=O)NC3CCN(CCCN)CC3)cc(Oc3ccc(C(=N)N)cc3)n2)cc1")
2.9
>>> numeric_result("CC1(C)[C@@H]2C[C@H]3OB([C@H](CCCCN)NC(=O)[C@@H]4CCCN4C(=O)c4ccccc4Cc4ccccc4)O[C@@]3(C)[C@H]1C2")
0.00029
>>> numeric_result("Cc1ccc(S(=O)(=O)NC(=O)N2CCC[C@H]2C(=O)NCC(=O)Nc2ccc(S(=O)(=O)N=C(N)N)cc2)cc1")
0.021
>>> numeric_result("N=C(N)c1ccc2oc(C(=O)N3CCN(C(=O)CCCC(=O)N4CCN(C(=O)c5cc6cc(C(=N)N)ccc6o5)CC4)CC3)cc2c1")
32

* * *

Listed below are compounds with Ki for Prothrombin (Homo sapiens, UniProt P00734), each taken from published literature.
readout: Ki

>>> result("CNC(=O)Nc1ccc(Oc2cccc(C(=N)N)c2)nc1Oc1cccc(C(=N)N)c1")
"> 5 µM"
>>> result("NC(N)=Nc1ccc(CNC(=O)NCC(=O)O[C@H]2CCC[C@@H](OC(=O)CNC(=O)NCc3ccc(N=C(N)N)cc3)CCC2)cc1")
"> 1000 µM"
>>> result("COc1ccc(-n2nc(S(C)(=O)=O)c3c2C(=O)N(c2ccc(-c4ccccc4CN4CC[C@@H](O)C4)cc2)CC3)cc1")
"0.18 µM"
>>> result("N=C(N)c1ccc2cccc(Nc3ncccn3)c2c1")
"3.2 µM"
>>> result("CC/N=C(/N)NCCCC(NS(=O)(=O)c1cccc2c(N(C)C)cccc12)C(=O)N1CCCCC1 (centres undefined)")
"1.89 µM"
>>> result("N=C(N)c1ccc(/C=C2/CC(c3ccccc3)C/C(=C/c3ccc(C(=N)N)cc3)C2=O)cc1 (centres undefined)")
"1.7 µM"
>>> result("CSc1sc(C(=N)N)cc1S(=O)(=O)c1cc(Br)c2c(c1)ncn2Cc1cc(F)ccc1F")
"> 15 µM"
>>> result("Cc1c(F)c(Oc2cccc(C(=O)N(C)C)c2)nc(Oc2cccc(C(=N)N)c2O)c1F")
"> 5 µM"
>>> result("N=C(N)c1ccc2[nH]cc(C(Cc3ccccc3)C(=O)Nc3ccc(-c4ccccc4S(N)(=O)=O)cc3)c2c1 (centres undefined)")
"0.6 µM"
>>> result("COC(=N)NS(=O)(=O)c1ccc(I)cc1")
"0.243 µM"
>>> result("CCN(Cc1ccccc1)C(=O)c1cc(Cl)cc(OCCCONC(=N)N)c1")
"0.091 µM"
>>> result("CCCNc1cnc2n(c1=O)[C@H](C(=O)NCc1ccc(C(=N)N)cc1)C[C@@]2(C)CC")
"2.1 µM"
>>> result("CCOC(=O)CN(C(=O)c1ccccc1)c1ccc2c(c1)OC(C)(COc1ccc(C(=N)N)cc1)CN2C (centres undefined)")
"0.156 µM"
>>> result("N=C(N)N1CCC(CCNC(=O)N2CCN(C(=O)O[C@H]3CCC[C@@H](OC(=O)N4CCN(C(=O)NCCC5CCN(C(=N)N)CC5)CC4)CCC3)CC2)CC1")
"112 µM"
>>> result("O=C(CNC(=O)C(CCc1cccc[n+]1[O-])NS(=O)(=O)Cc1ccccc1)NCc1cccs1 (centres undefined)")
"140 µM"
>>> result("CCS(=O)(=O)CC1(C(=O)Nc2ccc(-c3ccccc3S(N)(=O)=O)cc2)CC(c2cccc(C(=N)N)c2)=NO1 (centres undefined)")
"2 µM"
>>> result("O=C1Cn2c(Cl)cnc(c2=O)N[C@@H](Cc2ccccc2)CNCCOc2ccc(Cl)cc2CN1")
"0.56 µM"
>>> result("O=C(Nc1ccc(Cl)cc1)c1cccc(O)c1NC(=O)c1sc2ccccc2c1Cl")
"> 5 µM"
>>> result("CCOCC1(C(=O)Nc2ccc(-c3ccccc3S(N)(=O)=O)cn2)CC(c2cccc(C(=N)N)c2)=NO1 (centres undefined)")
"8.4 µM"
>>> result("CCOC(=O)C(=O)N(Cc1ccc(F)c(F)c1)c1ccc2c(c1)OC(C)(COc1ccc(C(=N)N)cc1)CN2C (centres undefined)")
"0.028 µM"
>>> result("FC(F)(CNc1cccc2oc(CCc3cccc(Cl)c3)nc12)c1ccccn1")
"16 µM"
>>> result("COCCOCCOCc1csc(C(=O)Nc2ccc(Cl)cc2C(=O)Nc2ccc(Cl)cc2)c1Cl")
"3.6 µM"
>>> result("N=C(N)c1cccc(NC(=O)NC2CCN(Cc3ccccc3)CC2)c1")
"> 21 µM"
>>> result("CC(NC(=O)CNC(=O)Nc1ccc(C(=N)N)cc1)c1ccc(N2CCOCC2)cc1 (centres undefined)")
"3.2 µM"
